assay: Half life in Sprague-Dawley rat at 3 mg/kg, po or 1 mg/kg, iv measured upto 24 hrs post dose by LC/MS/MS analysis; type: ADME, organism-based; settings: in vivo
outcome-measure: half-life (h)

INSERT INTO results (smiles_representation, recorded_value) VALUES
  ('C[C@@H]1CN(c2ccc(-c3n[nH]c4cnc(N5[C@H](C)CN(C(=O)N6CCCC6)C[C@@H]5C)nc34)cn2)CCN1', 3.8);

(I) COC(=O)N1C[C@@H](C)N(c2ncc3[nH]nc(-c4ccc(N5CCN[C@H](C)C5)nc4)c3n2)[C@@H](C)C1
(II) COC(=O)N1C[C@@H](C)N(c2ncc3[nH]nc(-c4ccc(N5CCN(C)CC5)cc4)c3n2)[C@@H](C)C1
Of I versus II , which is the one with smaller reported half-life? Write the label of whichever entry you select.
I
(I: 3.1 h, II: 5.7 h)

These measurements were taken from ChEMBL document CHEMBL5120943.
